In what follows, each item is paired with its pKi for LXR β LBD protein (Homo sapiens (Human), UniProt P55055).
# pKi: negative log10 of molar concentration; output just the value

LXR β LBD protein (Homo sapiens (Human), UniProt P55055) pKi of CC(=O)c1cnc(N2CCn3c(cc4ccc(S(C)(=O)=O)cc43)[C@H]2C(C)C)nc1C(F)(F)F [Compound E22a] is 7.92

LXR β LBD protein (Homo sapiens (Human), UniProt P55055) pKi of CC(C)[C@H]1c2cc3ccc(S(C)(=O)=O)cc3n2CCN1c1ncc(C(C)(C)O)c(C(F)(F)F)n1 [Compound E23b] is 5.61

LXR β LBD protein (Homo sapiens (Human), UniProt P55055) pKi of CC(C)[C@@H]1c2cc3ccc(S(C)(=O)=O)cc3n2CCN1c1ncc(CO)c(C(F)(F)F)n1 [Compound E25a] is 8.22

---

- Study Target: UniProtKB Q13133
- Sequence (Q13133 209-447): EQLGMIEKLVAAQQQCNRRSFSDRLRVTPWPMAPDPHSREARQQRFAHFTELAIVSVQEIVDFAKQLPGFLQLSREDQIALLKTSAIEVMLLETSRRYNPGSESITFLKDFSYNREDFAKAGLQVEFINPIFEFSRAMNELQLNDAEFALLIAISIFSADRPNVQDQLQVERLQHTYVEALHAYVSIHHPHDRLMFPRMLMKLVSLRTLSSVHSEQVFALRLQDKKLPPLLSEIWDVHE
- Assay Details: LXR luciferase transcriptional reporter gene assay, LXRα
- Protocol Conditions: HEK293 cells, Gal4-LXRα LBD, 16 h, read-out: LXRα CELL EC50
Field: EC50. Provide a value for each of the compounds that follow.

Lab note: measured EC50 of Cc1nc(N2CCn3c(nc4cc(CO)c(S(C)(=O)=O)cc43)[C@H]2C(C)C)ncc1CO was > 20 µM

Lab note: measured EC50 of CC(C)C1c2nc3ccc(S(C)(=O)=O)cc3n2CCN1c1ncc(C(N)=O)c(C(F)(F)F)n1 (racemic) was > 20 µM

Lab note: measured EC50 of CC(C)[C@@H]1c2nc3cc(CO)c(S(C)(=O)=O)cc3n2CCN1c1ncc(C(=O)O)c(C(F)(F)F)n1 (single isomer, unassigned) [Compound E14a] was > 20 µM

Lab note: measured EC50 of CC(C)[C@H]1c2nc3cc(CO)c(S(C)(=O)=O)cc3n2CCN1c1ncc(C(=O)O)c(C(F)(F)F)n1 (single isomer, unassigned) [Compound E14b] was > 20 µM

Lab note: measured EC50 of CCOC(=O)c1cnc(N2CCn3c(nc4ccc(S(C)(=O)=O)cc43)C2C(C)C)nc1C(F)(F)F (racemic) was 17.3 µM

Lab note: measured EC50 of CNC(=O)c1cnc(N2CCn3c(nc4cc(CO)c(S(C)(=O)=O)cc43)[C@@H]2C(C)C)nc1C(F)(F)F (single isomer, unassigned) [Compound E16b] was > 20 µM

Lab note: measured EC50 of CNC(=O)c1cnc(N2CCn3c(nc4cc(CO)c(S(C)(=O)=O)cc43)[C@H]2C(C)C)nc1C(F)(F)F (single isomer, unassigned) [Compound E16a] was > 20 µM

---

Field: pEC50. Provide a value for each of the compounds that follow.
- Study Target: LBD of LXRβ (Homo sapiens (Human))
- Sequence (P55055 222-460): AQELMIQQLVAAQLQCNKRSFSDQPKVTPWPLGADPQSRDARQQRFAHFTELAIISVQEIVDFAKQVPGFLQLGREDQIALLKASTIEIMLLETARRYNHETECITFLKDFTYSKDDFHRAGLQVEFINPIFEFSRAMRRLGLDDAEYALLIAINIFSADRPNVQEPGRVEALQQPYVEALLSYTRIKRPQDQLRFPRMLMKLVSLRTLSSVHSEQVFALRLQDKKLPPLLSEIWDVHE
- Assay Details: cell-based
# pEC50: negative log10 of molar concentration; output just the value

Lab note: measured pEC50 of CCOC(=O)c1cnc(N2CCn3c(nc4cc(CO)c(S(C)(=O)=O)cc43)[C@H]2C(C)C)nc1C(F)(F)F was 7.30

Lab note: measured pEC50 of COc1nc(N2CCn3c(nc4cc(CO)c(S(C)(=O)=O)cc43)[C@H]2C(C)C)ncc1C(F)(F)F was 7.62

Lab note: measured pEC50 of CCOC(=O)c1cnc(N2CCn3c(nc4ccc(S(C)(=O)=O)cc43)C2C(C)C)nc1C(F)(F)F (racemic) was 5.34

Lab note: measured pEC50 of CCCC(O)c1cnc(N2CCn3c(nc4cc(CO)c(S(C)(=O)=O)cc43)[C@H]2C(C)C)nc1C(F)(F)F (single isomer, unassigned) [Compound E11b] was 6.99

Lab note: measured pEC50 of CC(C)[C@@H]1c2nc3cc(CO)c(S(C)(=O)=O)cc3n2CCN1c1ncc(C(=O)O)c(C(F)(F)F)n1 (single isomer, unassigned) [Compound E14a] was 5.12
